- System: 463943-066-T-J2-PDC complex spheroid growth
- Method: Anticancer human tumor 463943-066-T-J2-PDC patient-derived colon adenocarcinoma cell line growth inhibition [Asc]
- Condition Context: curve of first compound; second compound 0.00949 µM
IC50 overview
Reported Endpoint: IC50

Compound	Obs Value
C=CC(=O)N1CCN(c2nc(=O)n(-c3c(C)ccnc3C(C)C)c3nc(-c4c(O)cccc4F)c(F)cc23)C(C)C1 (stereo not drawn) + CCN1C(C(=O)NC23CCC(C(=O)O)(CC2)CC3)C(c2cccc(Cl)c2F)C2(C(=O)Nc3cc(Cl)ccc32)C12CCCCC2	> 10000 nM
O=C(c1ccc(F)c(F)c1Nc1ccc(I)cc1F)N1CC(O)([C@@H]2CCCCN2)C1 + CCN1C(C(=O)NC23CCC(C(=O)O)(CC2)CC3)C(c2cccc(Cl)c2F)C2(C(=O)Nc3cc(Cl)ccc32)C12CCCCC2	188 nM
Cc1nc(N2CCC3(CC2)COC(C)C3N)c(CO)nc1Sc1ccnc(N)c1Cl (stereo not drawn) + CCN1C(C(=O)NC23CCC(C(=O)O)(CC2)CC3)C(c2cccc(Cl)c2F)C2(C(=O)Nc3cc(Cl)ccc32)C12CCCCC2	> 3000 nM
CCN1CCN(Cc2ccc(Nc3ncc(F)c(-c4cc(F)c5nc(C)n(C(C)C)c5c4)n3)nc2)CC1 + CCN1C(C(=O)NC23CCC(C(=O)O)(CC2)CC3)C(c2cccc(Cl)c2F)C2(C(=O)Nc3cc(Cl)ccc32)C12CCCCC2	> 1000 nM
NC(=O)C(=Cn1cnc(-c2cc(C(F)(F)F)cc(C(F)(F)F)c2)n1)c1cncnc1 + CCN1C(C(=O)NC23CCC(C(=O)O)(CC2)CC3)C(c2cccc(Cl)c2F)C2(C(=O)Nc3cc(Cl)ccc32)C12CCCCC2	> 300 nM
COc1c(OCCCN2CCOCC2)ccc2c3n(c(=NC(=O)c4cnc(N)nc4)nc12)CCN3 + CCN1C(C(=O)NC23CCC(C(=O)O)(CC2)CC3)C(c2cccc(Cl)c2F)C2(C(=O)Nc3cc(Cl)ccc32)C12CCCCC2	410 nM
O=C(c1cc(Cc2n[nH]c(=O)c3ccccc23)ccc1F)N1CCN(C(=O)C2CC2)CC1 + CCN1C(C(=O)NC23CCC(C(=O)O)(CC2)CC3)C(c2cccc(Cl)c2F)C2(C(=O)Nc3cc(Cl)ccc32)C12CCCCC2	> 10000 nM
C=C(F)C(=O)N1CCN(c2nc(OCC3CCCN3C)nc3c2CCN(c2cccc4cccc(Cl)c24)C3)CC1CC#N (stereo not drawn) + CCN1C(C(=O)NC23CCC(C(=O)O)(CC2)CC3)C(c2cccc(Cl)c2F)C2(C(=O)Nc3cc(Cl)ccc32)C12CCCCC2	6050 nM

###

- Test system: 463943-066-T-J2-PDC complex spheroid growth
- Method: Anticancer human tumor 463943-066-T-J2-PDC cell line growth inhibition [Asc];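 also: compound exposure lasted 7 days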;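 as to viability, T/C: 100% = DMSO vehicle control wells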
- Condition Context: second compound 3.16 µM; first compound 0.01 µM; stronger effect = lower value
viability, T/C overview

Compound	viability, T/C
O=C(c1ccc(F)c(F)c1Nc1ccc(I)cc1F)N1CC(O)([C@@H]2CCCCN2)C1 + Cc1c(S(C)(=O)=O)c(-c2cc(F)cc(N3CCN(c4ccc(NS(=O)(=O)c5ccc(NC(CCN6CCC(C(=O)OCCCP(=O)(O)O)CC6)CSc6ccccc6)c(S(=O)(=O)C(F)(F)F)c5)cc4)CC3)c2)c(-c2ccc(Cl)cc2)n1C(C)C	51.8%
CCN1CCN(Cc2ccc(Nc3ncc(F)c(-c4cc(F)c5nc(C)n(C(C)C)c5c4)n3)nc2)CC1 + Cc1c(S(C)(=O)=O)c(-c2cc(F)cc(N3CCN(c4ccc(NS(=O)(=O)c5ccc(NC(CCN6CCC(C(=O)OCCCP(=O)(O)O)CC6)CSc6ccccc6)c(S(=O)(=O)C(F)(F)F)c5)cc4)CC3)c2)c(-c2ccc(Cl)cc2)n1C(C)C	61.5%
CNC(C)C(=O)NC1CN(S(=O)(=O)c2cccc(S(=O)(=O)N3CCC4CCC(C(=O)NC(c5ccccc5)c5ccccc5)N4C(=O)C(NC(=O)C(C)NC)C3)c2)CCC2CCC(C(=O)NC(c3ccccc3)c3ccccc3)N2C1=O (stereo not drawn) + Cc1c(S(C)(=O)=O)c(-c2cc(F)cc(N3CCN(c4ccc(NS(=O)(=O)c5ccc(NC(CCN6CCC(C(=O)OCCCP(=O)(O)O)CC6)CSc6ccccc6)c(S(=O)(=O)C(F)(F)F)c5)cc4)CC3)c2)c(-c2ccc(Cl)cc2)n1C(C)C	77.3%
